Exercise: for every item that follows, state its recorded activity at 10 µM.
test system: ABIL (ammonia-binding liquid inoculum), nitrifying microbial enrichment containing both AOA and AOB; assay: Nitrification inhibition assay on ABIL (ammonium consumption); type: cell-based; details: 10 µM compound; structural variants outside formula (I); read-out: Relative nitrification (%) by ABIL treated with 10 µM compound
Return type: number; implicit unit %.

Can you share its activity at 10 µM? I mean this compound: O=C(NC1CC1)c1cccc(NC(=O)c2n[nH]c3ccccc23)c1
100

Can you share its activity at 10 µM? I mean this compound: Cc1sc2nc(CN3CCCC3)nc(Nc3ccc4cn[nH]c4c3)c2c1C
97

Can you share its activity at 10 µM? I mean this compound: O=C(CC1CCCCCC1)c1n[nH]c2ccccc12
99
